Could you please report measured melting point for the items listed next?
Give the quantity in °C, number only.

INPUT: What does the data say about its melting point? Entry: Cc1cc(C(=O)N2CC[C@@H](C)[C@H](c3cc(C(F)F)nc4ncnn34)C2)cc(C2CC2)n1 [Compound 93]
OUTPUT: 201.12

INPUT: What does the data say about its melting point? Entry: O=C(c1ccc(F)c(Cl)c1)N1[C@H]2CC[C@H](c3cc(C(F)F)nc4ncnn34)[C@@H]1CC2 [Compound 377]
OUTPUT: 183.67

INPUT: What does the data say about its melting point? Entry: C[C@@H]1CCN(C(=O)c2cc(Cl)cc(Cl)c2)C[C@H]1c1cc(C(F)F)nc2ncnn12 [Compound 334]
OUTPUT: 239.87

INPUT: What does the data say about its melting point? Entry: Cc1cc(C)cc(C(=O)N2CC[C@@H](C)[C@H](c3cc(C(F)F)nc4ncnn34)C2)c1 [Compound 123]
OUTPUT: 203.87

INPUT: What does the data say about its melting point? Entry: COc1nc(C)cc(C(=O)N2CC[C@@H](C)[C@H](c3cc(C(F)F)nc4ncnn34)C2)c1F [Compound 282]
OUTPUT: 193.33

INPUT: What does the data say about its melting point? Entry: Cc1cc(C#N)cc(C(=O)N2CC[C@@H](C)[C@H](c3cc(C(F)F)nc4ncnn34)C2)c1 [Compound 131]
OUTPUT: 224.39

INPUT: What does the data say about its melting point? Entry: C[C@H]1CCN(C(=O)c2ccc3occc3c2)C[C@@H]1c1cc(C(F)F)nc2ncnn12 [Compound 221]
OUTPUT: 122.37

INPUT: What does the data say about its melting point? Entry: Cc1cc(C(=O)N2[C@H]3CC[C@H](c4cc(C(F)F)nc5ncnn45)[C@@H]2CC3)cc(C)n1 (racemic) [Compound 31]
OUTPUT: 190.16

INPUT: What does the data say about its melting point? Entry: Cc1cc(C)nc(C(=O)N2CC[C@@H](C)[C@H](c3cc(C(F)F)nc4ncnn34)C2)c1 [Compound 137]
OUTPUT: 229.91

INPUT: What does the data say about its melting point? Entry: O=C(c1cc(Cl)cc(Cl)c1)N1[C@H]2CC[C@H](c3cc(C(F)F)nc4ncnn34)[C@@H]1CC2 [Compound 333]
OUTPUT: 291.55

INPUT: What does the data say about its melting point? Entry: COc1cc(C(=O)N2CC[C@@H](C)[C@H](c3cc(C(F)F)nc4ncnn34)C2)ccc1Cl [Compound 130]
OUTPUT: 193.85

INPUT: What does the data say about its melting point? Entry: O=C(c1ccc2ncsc2c1)N1[C@H]2CC[C@H](c3cc(C(F)F)nc4ncnn34)[C@@H]1CC2 [Compound 25a]
OUTPUT: 240.33

INPUT: What does the data say about its melting point? Entry: Cc1cc(C(=O)N2CC[C@@H](C)[C@H](c3cc(C(F)F)nc4ncnn34)C2)cc(OC(F)F)n1 [Compound 281]
OUTPUT: 114.59

INPUT: What does the data say about its melting point? Entry: Cc1cc(C(=O)N2CC[C@@H](C)[C@H](c3cc(C)nc4ncnn34)C2)cc(C2CC2)n1 [Compound 23]
OUTPUT: 169.13

INPUT: What does the data say about its melting point? Entry: CC(=O)N1CCc2cc(C(=O)N3CCC[C@@](C)(c4cc(C(F)F)nc5ncnn45)C3)ccc21 (single isomer, unassigned) [Compound 203]
OUTPUT: 204.03

====

Could you please report measured pIC50 for the items listed next?
Target: Human recombinant PDE2A (hPDE2A) (Homo sapiens)
Construct: His tag (inferred from metal chelate purification); made in house; host or cells: Sf9 insect cells (baculovirus)
Sequence (O00408 whole entry): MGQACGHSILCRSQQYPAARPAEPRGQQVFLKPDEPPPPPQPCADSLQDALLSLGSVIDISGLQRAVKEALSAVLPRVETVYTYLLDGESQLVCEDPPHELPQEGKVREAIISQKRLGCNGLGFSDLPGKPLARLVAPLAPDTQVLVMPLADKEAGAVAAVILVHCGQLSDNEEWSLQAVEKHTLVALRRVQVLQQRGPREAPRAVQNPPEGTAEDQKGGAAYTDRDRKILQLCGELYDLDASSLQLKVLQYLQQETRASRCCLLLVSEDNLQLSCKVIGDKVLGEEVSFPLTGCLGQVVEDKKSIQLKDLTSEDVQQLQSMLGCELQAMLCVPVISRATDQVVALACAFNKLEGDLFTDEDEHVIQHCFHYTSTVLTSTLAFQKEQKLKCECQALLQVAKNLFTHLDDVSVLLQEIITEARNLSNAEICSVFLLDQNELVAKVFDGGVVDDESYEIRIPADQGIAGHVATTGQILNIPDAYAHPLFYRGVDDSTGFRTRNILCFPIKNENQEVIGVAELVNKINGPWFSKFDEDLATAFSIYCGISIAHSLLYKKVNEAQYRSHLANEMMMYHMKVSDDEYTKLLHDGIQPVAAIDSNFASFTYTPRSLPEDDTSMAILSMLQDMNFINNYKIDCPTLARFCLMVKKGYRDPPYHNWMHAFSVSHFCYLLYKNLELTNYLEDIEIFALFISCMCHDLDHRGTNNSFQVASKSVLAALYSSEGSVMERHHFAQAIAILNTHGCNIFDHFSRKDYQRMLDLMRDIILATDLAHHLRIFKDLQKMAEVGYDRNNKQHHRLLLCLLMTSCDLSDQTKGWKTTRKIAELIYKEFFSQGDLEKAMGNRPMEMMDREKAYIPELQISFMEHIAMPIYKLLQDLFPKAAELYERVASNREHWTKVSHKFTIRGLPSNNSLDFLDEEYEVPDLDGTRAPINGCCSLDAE
Test: In vitro assay PDE2A (SPA, 3H-cGMP hydrolysis)
Type: biochemical
Details: hPDE2A pIC50, human recombinant PDE2A, 10 μM cGMP substrate
Structures can show the parent of a compound that is named as a salt.
Keep it numeric: pIC50 is minus log10 of the concentration in mol/L.

INPUT: What does the data say about its pIC50? Entry: Cc1cc(C(=O)N2CC[C@@H](C)[C@H](c3cc(C(F)F)nc4ncnn34)C2)cc(C)c1F
OUTPUT: 8.98

INPUT: What does the data say about its pIC50? Entry: Cc1cc([C@@H]2CN(C(=O)c3ccc4occc4c3)CC[C@H]2C)n2ncnc2n1
OUTPUT: 8.79

INPUT: What does the data say about its pIC50? Entry: Cc1cc([C@H]2CN(C(=O)c3ccc(C)c(C)n3)CC[C@@H]2C)n2ncnc2n1
OUTPUT: 5.25

INPUT: What does the data say about its pIC50? Entry: Cc1cc(C(=O)N2CC[C@@H](C)[C@H](c3cc(C(F)F)nc4ncnn34)C2)cc(Cl)c1F
OUTPUT: 8.64

INPUT: What does the data say about its pIC50? Entry: Cc1cc(C#N)cc(C(=O)N2CC[C@@H](C)[C@H](c3cc(C(F)F)nc4ncnn34)C2)c1
OUTPUT: 8.61

INPUT: What does the data say about its pIC50? Entry: Cc1cc([C@@H]2CN(C(=O)c3cc(C)c(C)cn3)CC[C@H]2C)n2ncnc2n1
OUTPUT: 8.24

INPUT: What does the data say about its pIC50? Entry: Cc1cc(C(=O)N2CC[C@@H](C)[C@H](c3cc(C(F)F)nc4ncnn34)C2)cc(C)c1C#N
OUTPUT: 9.00

INPUT: What does the data say about its pIC50? Entry: Cc1cc(C(=O)N2CC[C@@H](C)[C@H](c3cc(C)nc4ncnn34)C2)cc(C)n1
OUTPUT: 9.10

INPUT: What does the data say about its pIC50? Entry: Cc1cc([C@H]2CN(C(=O)c3cc(C)c(F)c(C)c3)CC[C@@H]2C)n2ncnc2n1
OUTPUT: 6.25

INPUT: What does the data say about its pIC50? Entry: Cc1cc(Cl)cc(C(=O)N2CC[C@@H](C)[C@H](c3cc(C(F)F)nc4ncnn34)C2)c1
OUTPUT: 9.17

INPUT: What does the data say about its pIC50? Entry: Cc1cc([C@@H]2CN(C(=O)c3cc(C)c(Cl)c(C)c3)CC[C@H]2C)n2ncnc2n1
OUTPUT: 9.03

INPUT: What does the data say about its pIC50? Entry: Cc1cc(C(=O)N2CC[C@@H](C)[C@H](c3cc(C(F)F)nc4ncnn34)C2)cc(F)c1F
OUTPUT: 8.29

INPUT: What does the data say about its pIC50? Entry: Cc1cc(C(=O)N2CC[C@H](C)[C@@H](c3cc(C(F)F)nc4ncnn34)C2)cc(C)n1 [220 (•HCl)]
OUTPUT: 6.01

INPUT: What does the data say about its pIC50? Entry: Cc1cc(C(=O)N2CC[C@@H](C)[C@H](c3cc(C(F)F)nc4ncnn34)C2)cc(Cl)n1
OUTPUT: 9.03

INPUT: What does the data say about its pIC50? Entry: Cc1cc(C(=O)N2CC[C@@H](C)[C@H](c3cc(C)nc4ncnn34)C2)cc(C2CC2)n1
OUTPUT: 9.33

INPUT: What does the data say about its pIC50? Entry: Cc1cc(C)cc(C(=O)N2CC[C@@H](C)[C@H](c3cc(C(F)F)nc4ncnn34)C2)c1
OUTPUT: 8.71

====

Biological target: Human recombinant PDE3A (hPDE3A) (Homo sapiens, UniProt Q14432)
Construct: purchased Scottish Biomedical; host or cells: Sf9 insect cells
Sequence (Q14432 whole entry): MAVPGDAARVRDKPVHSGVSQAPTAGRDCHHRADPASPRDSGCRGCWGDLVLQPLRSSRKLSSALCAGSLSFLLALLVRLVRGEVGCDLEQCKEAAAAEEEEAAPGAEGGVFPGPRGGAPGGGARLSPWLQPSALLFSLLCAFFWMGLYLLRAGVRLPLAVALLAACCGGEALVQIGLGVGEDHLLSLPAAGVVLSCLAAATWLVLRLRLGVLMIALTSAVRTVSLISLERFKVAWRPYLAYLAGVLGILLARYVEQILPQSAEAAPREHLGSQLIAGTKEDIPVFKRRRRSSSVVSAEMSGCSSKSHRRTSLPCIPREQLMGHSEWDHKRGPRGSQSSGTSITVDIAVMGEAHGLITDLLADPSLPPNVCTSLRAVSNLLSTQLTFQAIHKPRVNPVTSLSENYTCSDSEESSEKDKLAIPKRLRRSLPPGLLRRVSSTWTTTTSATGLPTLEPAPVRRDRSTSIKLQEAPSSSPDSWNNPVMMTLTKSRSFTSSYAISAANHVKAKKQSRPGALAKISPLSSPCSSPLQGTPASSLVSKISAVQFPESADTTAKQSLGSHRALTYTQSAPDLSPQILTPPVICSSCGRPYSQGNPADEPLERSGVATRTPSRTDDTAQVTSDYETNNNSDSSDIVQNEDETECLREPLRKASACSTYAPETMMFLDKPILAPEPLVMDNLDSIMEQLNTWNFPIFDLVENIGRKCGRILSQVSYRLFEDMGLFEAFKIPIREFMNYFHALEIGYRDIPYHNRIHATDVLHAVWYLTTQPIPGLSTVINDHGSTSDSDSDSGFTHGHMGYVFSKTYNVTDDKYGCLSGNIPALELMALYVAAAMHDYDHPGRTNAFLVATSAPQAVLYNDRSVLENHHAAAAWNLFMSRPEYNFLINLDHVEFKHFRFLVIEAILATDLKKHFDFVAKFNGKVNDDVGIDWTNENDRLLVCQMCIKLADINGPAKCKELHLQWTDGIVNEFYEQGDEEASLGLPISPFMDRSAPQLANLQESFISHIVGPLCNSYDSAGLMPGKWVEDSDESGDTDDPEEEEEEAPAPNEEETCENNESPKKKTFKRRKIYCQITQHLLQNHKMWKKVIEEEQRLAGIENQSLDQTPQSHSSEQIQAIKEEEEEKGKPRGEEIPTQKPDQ
Assay: In vitro assay PDE3A (SPA, 3H-cAMP hydrolysis);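 note: the method names PDE3A and the table heading PDE3B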
Format: biochemical
Conditions: read-out: hPDE3B Emax; read-out: Emax
TEST_READOUT: Emax
Answer shape: numeric part, then the unit.

INPUT: What does the data say about its Emax? Entry: COc1ncc(C(=O)N2CC[C@@H](C)[C@H](c3cc(C(F)F)nc4ncnn34)C2)cc1Cl [Compound 134]
OUTPUT: 84%

INPUT: What does the data say about its Emax? Entry: C[C@@H]1CCN(C(=O)c2cnccn2)C[C@H]1c1cc(C(F)F)nc2ncnn12 [Compound 257]
OUTPUT: 15%

INPUT: What does the data say about its Emax? Entry: Cc1cc([C@@H]2CN(C(=O)c3ccnc(Cl)c3F)CC[C@H]2C)n2ncnc2n1 [Compound 11]
OUTPUT: 69%

INPUT: What does the data say about its Emax? Entry: C[C@@H]1CCN(C(=O)c2cc(C#N)ccn2)C[C@H]1c1cc(C(F)F)nc2ncnn12 [Compound 163]
OUTPUT: 12%

INPUT: What does the data say about its Emax? Entry: C[C@@H]1CCN(C(=O)c2ccc3ncc(F)cc3c2)C[C@H]1c1cc(C(F)F)nc2ncnn12 [Compound 332]
OUTPUT: 90%

INPUT: What does the data say about its Emax? Entry: COc1cccc2cc(C(=O)N3CC[C@@H](C)[C@H](c4cc(C(F)F)nc5ncnn45)C3)oc12 [Compound 105]
OUTPUT: 90%

INPUT: What does the data say about its Emax? Entry: O=C(c1ccc(OC(F)(F)F)c(F)c1)N1[C@H]2CC[C@H](c3cc(C(F)F)nc4ncnn34)[C@@H]1CC2 [Compound 342]
OUTPUT: 69%
